// provenance: patent US20240262823A1

MEASUREMENT NOTES: Long-term/accelerated stability test of crystalline salt forms in sealed aluminum foil bags
Format: physicochemical
PARTICULARS: 4° C., 1 month
Procedure: The crystalline form α of mesylate, the crystalline form α of sulfate, the crystalline form I of maleate, the crystalline form a of p-toluenesulfonate and the crystalline form a of oxalate were stored in sealed aluminum foil bags and subjected to stability test under the conditions of −20° C., 4° C., 25° C./60% RH and 40° C./75% RH.
Exercise: state measured Purity (%) for each of the compounds provided.
Answers are plain numbers, in %.

Use these answered entries as a reference point.
CC1COCCN1c1cc(C(C)(C)C#N)c2c(n1)c(-c1cc[nH]n1)nn2C.Cc1ccc(S(=O)(=O)O)cc1 (centres unmarked) [Crystalline form a of p-toluenesulfonate]; 98.13
CC1COCCN1c1cc(C(C)(C)C#N)c2c(n1)c(-c1cc[nH]n1)nn2C.O=S(=O)(O)O (stereo not drawn) [Crystalline form α of sulfate]; 97.07
CC1COCCN1c1cc(C(C)(C)C#N)c2c(n1)c(-c1cc[nH]n1)nn2C.CC1COCCN1c1cc(C(C)(C)C#N)c2c(n1)c(-c1cc[nH]n1)nn2C.O=C(O)C(=O)O (centres unmarked) [Crystalline form a of oxalate]; 99.54

Okay, here is my list. What is Purity (%) for each of these?
1. CC1COCCN1c1cc(C(C)(C)C#N)c2c(n1)c(-c1cc[nH]n1)nn2C.O=C(O)C=CC(=O)O (centres unmarked) [Crystalline form I of maleate]
2. CC1COCCN1c1cc(C(C)(C)C#N)c2c(n1)c(-c1cc[nH]n1)nn2C.CS(=O)(=O)O (stereo not drawn) [Crystalline form α of mesylate]

Result ::
[98.99, 98.66]
